Catalogue of LC50 (median lethal concentration) readings, one per entry.
test system: acute myelogenous leukemia cells MV4-11; assay: GI50 and LC50 by NCI method, MV4-11; assay type: cell-based; details: Homo sapiens, 48 hours, Cell Titer-Blue
Hi! Could you send only the number? It should be in µM, unit omitted.

CCCNNC(=O)c1ccc(CNC(=O)/C=C/c2cccnc2)cc1 [LEE12] ... 0.218
CCCNNC(=O)c1ccc(CNC(=O)c2cc3ccccc3s2)cc1 [LEE17] ... 0.0571
CCCNNC(=O)c1ccc(CNC(=O)c2cc3cnccc3[nH]2)cc1 [LEE18] ... 0.0582
CCCNNC(=O)CCCCCCNC(=O)c1cc2cnccc2[nH]1 [LEE7] ... 0.164

Ask: Give a short answer stating reported LC50 (median lethal concentration) for Nc1ccccc1NC(=O)CCCCCCCNC(=O)/C=C/c1cccnc1 [LEE8] .
Result: 0.456

* * *

Catalogue of IC50 readings, one per entry.
target: NAMPT (Homo sapiens (Human))
Sequence (P43490 whole entry, species assumed): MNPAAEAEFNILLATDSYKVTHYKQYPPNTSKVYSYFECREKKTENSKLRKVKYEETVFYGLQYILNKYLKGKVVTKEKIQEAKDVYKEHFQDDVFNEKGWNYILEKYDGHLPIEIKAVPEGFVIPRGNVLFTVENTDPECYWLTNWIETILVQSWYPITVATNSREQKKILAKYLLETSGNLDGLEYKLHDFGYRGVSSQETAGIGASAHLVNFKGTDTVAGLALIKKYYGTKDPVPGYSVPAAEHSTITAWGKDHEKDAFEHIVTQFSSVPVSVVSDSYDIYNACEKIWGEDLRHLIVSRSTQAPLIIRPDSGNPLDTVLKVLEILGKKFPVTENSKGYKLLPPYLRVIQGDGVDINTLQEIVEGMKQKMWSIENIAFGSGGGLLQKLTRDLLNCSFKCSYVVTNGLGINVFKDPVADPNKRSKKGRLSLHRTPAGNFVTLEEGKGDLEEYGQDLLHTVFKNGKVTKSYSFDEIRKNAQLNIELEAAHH
Hi! Could you send only the number? It should be in µM, unit omitted.

CCCNNC(=O)c1ccc(CNC(=O)/C=C/c2cccnc2)cc1 ... 6.57

Okay, next one:
Ask: Give a short answer stating reported IC50 for COC(=O)c1ccc(CNC(=O)/C=C/c2cccnc2)cc1 .
Result: 4.67

* * *

assay: Pharmacokinetic properties in mice; type: in vivo; conditions: mouse, plasma, po 20 mg/kg single dose
observation.type: AUC(0-t)

CCCNNC(=O)/C=C/c1ccc(CNCCc2c(C)[nH]c3ccccc23)cc1 [Comparative example 2 LP97/13a, reference compound] ... 0.242 µg·h/mL
CCCNNC(=O)c1ccc(CNC(=O)c2cc3ccccc3s2)cc1 ... 27.6 µg·h/mL
CCCNNC(=O)c1ccc(CNC(=O)c2cc3ccccc3[nH]2)cc1 ... 128 µg·h/mL

Okay, next one:
Ask: Give a short answer stating reported AUC(0-t) for CCCNNC(=O)c1ccc(CNC(=O)c2cc3ccccc3o2)cc1 .
Result: 129 µg·h/mL

* * *

test: Pharmacokinetic properties in mice; format: in vivo; conditions: mouse, plasma, po 20 mg/kg single dose, read-out: t½ (converted)
observation.type: half-life (h)
Hi! Could you send only the number? It should be in h, unit omitted.

CCCNNC(=O)c1ccc(CNC(=O)c2cc3ccccc3s2)cc1 ... 4.46

Okay, next one:
Ask: Give a short answer stating reported half-life for CCCNNC(=O)c1ccc(CNC(=O)c2cc3ccccc3o2)cc1 .
Result: 6.03

* * *

assay: Pharmacokinetic properties in mice; format: in vivo; conditions: mouse, plasma, po 20 mg/kg single dose
observation.type: Tmax (min)
Hi! Could you send only the number? It should be in min, unit omitted.

CCCNNC(=O)/C=C/c1ccc(CNCCc2c(C)[nH]c3ccccc23)cc1 [Comparative example 2 LP97/13a, reference compound] ... 30

Ask: Give a short answer stating reported Tmax for CCCNNC(=O)c1ccc(CNC(=O)c2cc3ccccc3[nH]2)cc1 [LEE15] .
Result: 15

Ask: Give a short answer stating reported Tmax for CCCNNC(=O)c1ccc(CNC(=O)c2cc3ccccc3s2)cc1 [LEE17] .
Result: 15

Ask: Give a short answer stating reported Tmax for CCCNNC(=O)c1ccc(CNC(=O)c2cc3ccccc3o2)cc1 [LEE16] .
Result: 30

* * *

Parameter pIC50, tested on HDAC2 (Homo sapiens (Human)), listed per item.
Lab note — pIC50 values are minus log10 of concentrations in M.

Please review the following examples before continuing.
CCCNNC(=O)c1ccc(CNC(=O)c2cc3cnccc3s2)cc1 [LEE19] ... 7.22
CCCNNC(=O)c1ccc(CNC(=O)c2cc3ccccc3[nH]2)cc1 [LEE15] ... 7.82
CCCNNC(=O)c1ccc(CNC(=O)/C=C/c2ccccn2)cc1 [LEE13] ... 7.31
Nc1ccccc1NC(=O)CCCCCCCNC(=O)/C=C/c1cccnc1 [LEE8] ... 6.49
CCCNNC(=O)c1ccc(CNC(=O)/C=C/c2ccncc2)cc1 [LEE14] ... 7.05

Ask: Give a short answer stating reported pIC50 for CCCNNC(=O)c1ccc(CNC(=O)c2cc3ccncc3[nH]2)cc1 [LEE21] .
Result: 7.29

Ask: Give a short answer stating reported pIC50 for CCCNNC(=O)c1ccc(NC(=O)CCCCCCCNC(=O)/C=C/c2cccnc2)cc1 [LEE38] .
Result: 6.27

Ask: Give a short answer stating reported pIC50 for CCCNNC(=O)c1ccc(NC(=O)CCCCCCNC(=O)/C=C/c2cccnc2)cc1 [LEE40] .
Result: 6.91

* * *

tested on: acute myelogenous leukemia cells MV4-11; test: GI50 and LC50 by NCI method, MV4-11; format: cell-based; details: Homo sapiens, 48 hours, Cell Titer-Blue
observation.type: LC50 (median lethal concentration)
The answer should read as a number with its unit following.

CCCNNC(=O)c1ccc(CNC(=O)c2cc3ccccc3o2)cc1 [LEE16] ... 57.8 nM
CCCNNC(=O)c1ccc(CNC(=O)/C=C/c2ccccn2)cc1 [LEE13] ... 125 nM
CCCNNC(=O)c1ccc(CNC(=O)c2cc3ccccc3[nH]2)cc1 [LEE15] ... 58.1 nM
CCCNNC(=O)c1ccc(CNC(=O)c2cc3ccncc3[nH]2)cc1 [LEE21] ... 58 nM

Ask: Give a short answer stating reported LC50 (median lethal concentration) for CCCNNC(=O)c1ccc(CNC(=O)/C=C/c2ccncc2)cc1 [LEE14] .
Result: 83.6 nM

Ask: Give a short answer stating reported LC50 (median lethal concentration) for CCCNNC(=O)c1ccc(CNC(=O)c2cc3cnccc3s2)cc1 [LEE19] .
Result: 98.5 nM

Ask: Give a short answer stating reported LC50 (median lethal concentration) for CCCNNC(=O)c1ccc(CNC(=O)c2cc3cnccc3o2)cc1 [LEE20] .
Result: 109 nM

* * *

molecular target: HDAC2 (Homo sapiens (Human), UniProt Q92769); assay: Inhibitory activity on HDAC2 (fluorescence enzyme assay); conditions: read-out: IC50 HDAC2; mean of three independent experiments
Sequence (Q92769 whole entry, species assumed): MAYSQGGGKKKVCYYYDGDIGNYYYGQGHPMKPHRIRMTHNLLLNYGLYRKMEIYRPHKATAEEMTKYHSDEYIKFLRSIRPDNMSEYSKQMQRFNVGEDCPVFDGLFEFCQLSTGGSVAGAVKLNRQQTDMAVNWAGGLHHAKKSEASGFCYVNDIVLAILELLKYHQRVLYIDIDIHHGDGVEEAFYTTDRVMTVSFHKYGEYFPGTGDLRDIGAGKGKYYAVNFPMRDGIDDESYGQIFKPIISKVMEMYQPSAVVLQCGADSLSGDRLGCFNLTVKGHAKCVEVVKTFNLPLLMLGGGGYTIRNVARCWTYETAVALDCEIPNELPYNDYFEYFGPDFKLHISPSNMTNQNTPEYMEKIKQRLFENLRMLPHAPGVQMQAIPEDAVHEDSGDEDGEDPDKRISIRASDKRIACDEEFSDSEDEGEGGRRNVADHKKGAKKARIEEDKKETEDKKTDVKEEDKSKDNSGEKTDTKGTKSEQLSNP
Catalogue of pIC50 readings, one per entry.
Lab note — pIC50 values are minus log10 of concentrations in M.

Ask: Give a short answer stating reported pIC50 for CCCNNC(=O)c1ccc(CNC(=O)c2cc3ccccc3s2)cc1 .
Result: 7.77

Ask: Give a short answer stating reported pIC50 for CCCNNC(=O)c1ccc(CNC(=O)/C=C/c2ccccc2)cc1 [Comparative example 1 LP411/3b, reference compound] .
Result: 7.02

Ask: Give a short answer stating reported pIC50 for CCCNNC(=O)c1ccc(CNC(=O)c2cc3cnccc3o2)cc1 .
Result: 7.42

Ask: Give a short answer stating reported pIC50 for CCCNNC(=O)c1ccc(CNC(=O)/C=C/c2cccnc2)cc1 .
Result: 6.85

Ask: Give a short answer stating reported pIC50 for CCCNNC(=O)c1ccc(NC(=O)CCCCCCCn2cc(-c3cccnc3)nn2)cc1 .
Result: 7.10

Ask: Give a short answer stating reported pIC50 for CCCNNC(=O)c1ccc(CNC(=O)CCCCCCCNC(=O)/C=C/c2cccnc2)cc1 .
Result: 7.08

Ask: Give a short answer stating reported pIC50 for Nc1ccccc1NC(=O)CCCCCCCn1cc(-c2cccnc2)nn1 .
Result: 6.73

Ask: Give a short answer stating reported pIC50 for CCCNNC(=O)c1ccc(CNC(=O)c2cc3ccccc3o2)cc1 .
Result: 7.73

Ask: Give a short answer stating reported pIC50 for CCCNNC(=O)c1ccc(CNC(=O)c2cc3cnccc3[nH]2)cc1 .
Result: 7.42

* * *

Catalogue of LC50 (median lethal concentration) readings, one per entry.
tested on: leukemia cell line PL21; assay: GI50 and LC50 by NCI method, PL21; type: cell-based; conditions: PL-21; 48 hours, Cell Titer-Blue
Hi! Could you send only the number? It should be in µM, unit omitted.

CCCNNC(=O)c1ccc(CNC(=O)c2cc3cnccc3[nH]2)cc1 ... 2.72

Ask: Give a short answer stating reported LC50 (median lethal concentration) for CCCNNC(=O)c1ccc(CNC(=O)/C=C/c2cccnc2)cc1 .
Result: 3.82

* * *

Catalogue of log10(GI50) readings, one per entry.
tested on: leukemia cell line PL21; test: GI50 and LC50 by NCI method, PL21; format: cell-based; conditions: PL-21; 48 hours, Cell Titer-Blue
Parameter value (number): base-10 log of GI50 in nM.

Please review the following examples before continuing.
CCCNNC(=O)c1ccc(CNC(=O)c2cc3cnccc3[nH]2)cc1 ... 2.04
CCCNNC(=O)c1ccc(CNC(=O)/C=C/c2cccnc2)cc1 ... 2.41
CCCNNC(=O)c1ccc(CNC(=O)c2cc3ccccc3s2)cc1 ... 1.87

Ask: Give a short answer stating reported log10(GI50) for CCCNNC(=O)c1ccc(CNC(=O)c2cc3ccccc3o2)cc1 .
Result: 1.54

Ask: Give a short answer stating reported log10(GI50) for CCCNNC(=O)c1ccc(CNC(=O)/C=C/c2ccccc2)cc1 [Comparative example 1 LP411/3b, reference compound] .
Result: 2.72

Ask: Give a short answer stating reported log10(GI50) for CCCNNC(=O)c1ccc(CNC(=O)c2cc3ccccc3[nH]2)cc1 .
Result: 1.82
